# Tested on: C33A
# TEST DETAILS: Primary qHTS to identify gynecologic anti-cancer compounds using libraries of approved drugs and bioactive compounds (AID 1345084); note: nearly all actives have a fitted effect of over 55% in size; for activity change, negative = cytotoxicity: % is set by controls: 0 for no effect and ±100 for the full control effect
# TEST CONDITIONS: Gynecologic cancer cell panel viability, ATPlite luminescence, 48 h; series mostly up to 57.5 µM
Results filed as inconclusive are left out. Active and inactive are the calls of the source. Calls come from the whole dose curve; as a rule, active = well fitted cell-killing curve with a large enough effect; inconclusive = small, poorly fitted or top-dose-only effect, or effect the other way; inactive = flat fitted curve, though single readings scatter.
VALUE TYPE: activity change, negative = cytotoxicity

>>> meas_value("COC(=O)c1ccc(OC(CO)C(O)c2ccc(O)c(OC)c2)c(OC)c1 (centres undefined)")
"inactive"
>>> meas_value("CN1c2ccccc2C(=O)N2CCC3c4ccccc4NC3C21 (centres undefined)")
"inactive"
>>> meas_value("CC1OC(O[C@H]2CC[C@@]3(C)C(CC[C@]4(C)C3CC=C3C5CC(C)(C)CC[C@]5(C(=O)OC5OC(CO)C(OC6OC(COC7OCC(O)C(O)C7O)C(O)C(O)C6O)C(O)C5O)CC[C@]34C)C2(C)C)C(O)C(O)C1OC1OCC(OC2OCC(O)C(O)C2O)C(O)C1O (some centres undefined)")
"24.4% [at 6.55 µM] (inactive)"
>>> meas_value("COC1CC(O[C@H]2CC[C@@]3(C)C(CCC4C3[C@H](OC(C)=O)[C@@H](OC(=O)/C=C/c3ccccc3)[C@]3(C)C(C(C)=O)CC[C@]43O)C2)OC(C)C1OC1CC(OC)C(OC2CC(OC)C(OC3OC(C)C(OC4OC(CO)C(O)C(O)C4O)C(OC)C3O)C(C)O2)C(C)O1 (some centres undefined)")
"-1.17% [at 6.55 µM] (inactive)"

* * *

activity change, negative = cytotoxicity values for the molecules below.
# Test system: CASKI
# TEST DETAILS: Primary qHTS to identify gynecologic anti-cancer compounds using libraries of approved drugs and bioactive compounds (AID 1345084); note: nearly all actives have a fitted effect of over 55% in size; for activity change, negative = cytotoxicity: % is set by controls: 0 for no effect and ±100 for the full control effect
# TEST CONDITIONS: Gynecologic cancer cell panel viability, ATPlite luminescence, 48 h; series mostly up to 57.5 µM
Results filed as inconclusive are left out. The source made the active and inactive calls. The call rests on the fitted dose curve; in most records, active means well fitted cell-killing curve with a large enough effect; inconclusive means small, poorly fitted or top-dose-only effect, or effect the other way; inactive means flat fitted curve, though single readings scatter.
VALUE TYPE: activity change, negative = cytotoxicity

>>> meas_value("O=S(=O)(Nc1ccccn1)c1ccc(N=Cc2c(O)[nH]c3ccc4ncsc4c23)cc1")
"20.8% [at 11.6 µM] (inactive)"
>>> meas_value("C[C@@H]1O[C@@H](O[C@@H]2[C@@H](O)[C@@H](O[C@]3(CO)O[C@H](CO)[C@@H](O)[C@@H]3OC(=O)/C=C/c3ccc(O)cc3)O[C@H](CO)[C@H]2OC(=O)/C=C/c2ccc(O)cc2)[C@H](O)[C@H](O)[C@H]1O[C@@H]1O[C@@H](C)[C@H](O[C@@H]2OC[C@](O)(CO)[C@H]2O)[C@@H](O)[C@H]1O")
"12.2% [at 11.6 µM] (inactive)"
>>> meas_value("C[C@@H]1CC[C@]2(C(=O)O[C@@H]3O[C@H](CO)[C@@H](O)[C@H](O)[C@H]3O)CC[C@]3(C)C(=CCC4[C@@]5(C)C[C@@H](O)[C@H](O)[C@@](C)(C(=O)O[C@H]6[C@H](O)C[C@@]7(C)C(CC[C@]8(C)C7CC=C7[C@H]9[C@](C(=O)O[C@@H]%10O[C@H](CO)[C@@H](O)[C@H](O)[C@H]%10O)(CC[C@@H](C)[C@@]9(C)O)CC[C@]78C)[C@@]6(CO)C(=O)O)C5CC[C@]43C)[C@@H]2[C@]1(C)O (stereo partly drawn)")
"11.5% [at 6.55 µM] (inactive)"
>>> meas_value("C[C@@H]1O[C@@H](O[C@H]2[C@H](O[C@H]3CC[C@@]4(C)C(CC[C@]5(C)C4C=C[C@]46OC[C@@]7(CCC(C)(C)C[C@H]74)[C@@H](O)C[C@]65C)[C@]3(C)CO)O[C@H](CO)[C@@H](O)[C@@H]2O[C@@H]2O[C@H](CO)[C@@H](O[C@@H]3O[C@@H](C)[C@H](O)[C@@H](O)[C@H]3O)[C@H](O)[C@H]2O)[C@H](O)[C@H](O)[C@H]1O (stereo partly drawn)")
"-6.58% [at 11.6 µM] (inactive)"
>>> meas_value("CC1OC(OC2C(OC3C(O[C@H]4CC[C@@]5(C)C(CC[C@]6(C)C5C(=O)C=C5C7CC(C)(C)CC(O)[C@]7(C)CC[C@]56C)C4(C)C)OC(C(=O)O)C(O)C3O)OCC(O)C2O)C(O)C(O)C1O (stereo partly drawn)")
"-7.33% [at 11.6 µM] (inactive)"
>>> meas_value("C[C@@H]1C[C@H]2O[C@@H]2/C=C\\C=C\\C(=O)Cc2c(Cl)c(O)cc(O)c2C(=O)O1")
"-0.527% [at 11.6 µM] (inactive)"
>>> meas_value("C[C@@H]1O[C@@H](O[C@H]2[C@H](O[C@H]3CC[C@@]4(C)C(CC[C@]5(C)C4CC=C4[C@@H]6CC(C)(C)CC[C@]6(C(=O)O[C@@H]6OC[C@H](O)[C@H](O)[C@H]6O[C@@H]6O[C@@H](C)[C@H](O[C@@H]7O[C@H](CO)[C@@H](O)[C@H](O)[C@H]7O)[C@H](O)[C@H]6O)[C@H](O)C[C@]45C)C3(C)C)O[C@H](CO)[C@@H](O[C@@H]3OC[C@@H](O)[C@H](O)[C@H]3O)[C@@H]2O)[C@H](O)[C@H](O)[C@H]1O (stereo partly drawn)")
"6.32% [at 6.55 µM] (inactive)"
>>> meas_value("C[C@@H]1O[C@@H](O[C@@H]2[C@@H](O)[C@H](O[C@H]3CC[C@@]4(C)C(CC[C@]5(C)C4CC=C4[C@@H]6CC(C)(C)CC[C@]6(C(=O)O[C@@H]6O[C@H](CO)[C@@H](O)[C@H](O)[C@H]6O)CC[C@]45C)C3(C)C)O[C@H](C(=O)O)[C@H]2O)[C@H](O)[C@H](O)[C@H]1O (stereo partly drawn)")
"17% [at 11.6 µM] (inactive)"

* * *

# System: Tov112D
# TEST DETAILS: Primary qHTS to identify gynecologic anti-cancer compounds using libraries of approved drugs and bioactive compounds (AID 1345084); note: nearly all actives have a fitted effect of over 55% in size
# TEST CONDITIONS: Gynecologic cancer cell panel viability, ATPlite luminescence, 48 h; series mostly up to 57.5 µM
Results filed as inconclusive are left out. Active and inactive are the calls of the source. Calls come from the whole dose curve; as a rule, active = well fitted cell-killing curve with a large enough effect; inconclusive = small, poorly fitted or top-dose-only effect, or effect the other way; inactive = flat fitted curve, though single readings scatter.
VALUE TYPE: outcome

>>> meas_value("Cc1cc2c(F)c(Oc3ncnn4cc(OCC(C)O)c(C)c34)ccc2[nH]1 (stereo unspecified)")
"inactive"
>>> meas_value("C=CC(=O)N1CCN(C(=O)CNc2cc(I)c(Cl)cc2O)CC1")
"inactive"
>>> meas_value("O=C(NCc1cccc(O)c1)Nc1nc(-c2ccncc2)cs1")
"inactive"
>>> meas_value("C[C@H](O)[C@H](O)/C=C/c1cccc(O)c1CO")
"inactive"
>>> meas_value("CCC(CC)C(=O)Nc1sc2c(c1C#N)CCC(C(C)(C)CC)C2 (stereo unspecified)")
"inactive"
>>> meas_value("CC(=O)O[C@@H](CO[C@@H]1O[C@H](CO)[C@H](O)[C@H](O)[C@H]1O)[C@]1(C)C=C2CC[C@@H]3C(C)(C)[C@@H](O)CC[C@@]3(C)[C@@H]2CC1")
"inactive"

* * *

# System: Es-2
# TEST DETAILS: Primary qHTS to identify gynecologic anti-cancer compounds using libraries of approved drugs and bioactive compounds (AID 1345084); note: nearly all actives have a fitted effect of over 55% in size
# TEST CONDITIONS: Gynecologic cancer cell panel viability, ATPlite luminescence, 48 h; series mostly up to 57.5 µM
Results filed as inconclusive are left out. Calls of active or inactive are those of the source. Calls come from the whole dose curve; as a rule, active = well fitted cell-killing curve with a large enough effect; inconclusive = small, poorly fitted or top-dose-only effect, or effect the other way; inactive = flat fitted curve, though single readings scatter.
Classes used: active, inactive

>>> group_label("C=CC(C)(CC/C=C(\\C)C(=O)OC)OC1OC(COC(=O)CC(C)(O)CC(=O)O)C(OC2OC(CO)C(O)C(O)C2O)C(O)C1O (centres undefined)")
"inactive"
>>> group_label("CCOCCOC(=O)/C=C/c1ccc(OC)cc1")
"inactive"
>>> group_label("CC1=C(C)C(=O)OC(C(C)C2CCC3C4C5OC5C5(O)CC(OC6OC(CO)C(OC7OC(C)C(O)C(O)C7O)C(O)C6O)CC(O)C5(C)C4CCC23C)C1 (centres undefined)")
"inactive"
>>> group_label("O=C(c1cccc(Cl)c1F)N1CCN(Cc2cccc(Nc3nccs3)n2)CC1")
"inactive"
>>> group_label("O=S(=O)(c1ccccc1)c1cnc2c(N3CCNCC3)cccc2c1")
"inactive"
>>> group_label("CN(C)c1ccc2c(c1)OC(N)=C(C#N)C2c1cccc(C(F)(F)F)c1 (centres undefined)")
"active"
>>> group_label("O=C(O)c1ccc(OC2OC(CO)C(O)C(O)C2O)cc1 (centres undefined)")
"inactive"
>>> group_label("COCCOc1cnc2ccn([C@H](C)c3nnc4c(F)cc(-c5cnn(C)c5)cn34)c(=O)c2c1")
"inactive"
>>> group_label("CC1CC(C(O)C(C)(C)O)OC2CC3(C)C4(C)CCC5C(C)(C)C(=O)CCC5(C)C4CCC3(O)C12O (centres undefined)")
"inactive"
>>> group_label("CC12CCC(OC3OC(CO)C(O)C(OC4OC(CO)C(O)C(O)C4O)C3O)CC1CCC1C2CCC2(C)/C(=C3/COC(=O)C3)CCC12O (centres undefined)")
"inactive"
>>> group_label("OC[C@H]1O[C@@H](Oc2ccccc2)[C@H](O)[C@@H](O)[C@@H]1O")
"inactive"
>>> group_label("C[C@@H]1[C@H]2[C@H](O[C@@H]3O[C@H](CO)[C@@H](O)[C@H](O)[C@H]3O)OC=C(C(=O)O)[C@H]2C[C@@H]1O")
"inactive"
>>> group_label("CS(=O)(=O)NCC1CCC(Nc2nc3c(s2)CCSc2ccccc2-3)CC1 (centres undefined)")
"inactive"
>>> group_label("C[C@@H]1O[C@@H](OC[C@H]2O[C@@H](OC(CCCCc3ccc(O)cc3)CCc3ccc(O)cc3)[C@H](O)[C@@H](O)[C@@H]2O)[C@H](O)[C@H](O)[C@H]1O (some centres undefined)")
"inactive"
>>> group_label("C[C@@H]1CC[C@@]2(OC1)O[C@H]1C[C@H]3[C@@H]4CC=C5C[C@@H](O)CC[C@]5(C)[C@H]4CC[C@]3(C)[C@H]1[C@@H]2C")
"inactive"
>>> group_label("CC(C)(C(=O)NCC(F)(F)C(F)(F)F)C(=O)NC1C(=O)Nc2ccccc2-c2ccccc21 (centres undefined)")
"inactive"
>>> group_label("CC/C=C/CC1=C(CCCCC(CCC(=O)O)OC(C)=O)CCC1=O (centres undefined)")
"inactive"
>>> group_label("CCOC(=O)c1sc(NC(=O)[C@H](C(C)C)n2c(=O)[nH]c3ccccc3c2=O)nc1C")
"inactive"
>>> group_label("CC(C)(C)NCCCNC(=O)c1cccc(Br)c1")
"inactive"
>>> group_label("CC(O)CCC1C(CO[C@@H]2O[C@H](CO)[C@@H](O)[C@H](O)[C@H]2O)CC(O)CC1(C)C (some centres undefined)")
"inactive"
>>> group_label("C[C@H](Oc1ccc(S(C)(=O)=O)cc1C(=O)N1CCN(c2ncc(C(F)(F)F)cc2F)CC1)C(F)(F)F")
"inactive"
>>> group_label("C=C1CCCC2(C)CC3(OC)OC(=O)C(C)=C3CC12 (centres undefined)")
"inactive"
>>> group_label("C[C@@H]1CC[C@]2(C(=O)O)CC[C@]3(C)C(=CCC4[C@@]5(C)CC[C@H](O)C(C)(C)C5C(O)C[C@]43C)[C@@H]2[C@]1(C)O (some centres undefined)")
"inactive"
>>> group_label("C=C1C(O)CC2C(C(=O)O)=COC(O[C@@H]3O[C@H](COC(=O)/C=C/c4ccc(O)cc4)[C@@H](O)[C@H](O)[C@H]3O)C12 (some centres undefined)")
"inactive"
>>> group_label("C=C1C[C@@]23CCC4[C@@](C)(CCC[C@@]4(C)C(=O)OC)C2CC[C@@H]1C3 (some centres undefined)")
"inactive"
>>> group_label("CO[C@H]1/C=C/C=C/C=C/C[C@H](OC(=O)[C@@H](C)NC(=O)C2CCCCC2)[C@H](C)[C@@H](O)/C(C)=C/CCc2cc(O)cc(c2)NC(=O)C1")
"active"
>>> group_label("COC(=O)C1=COC(O[C@@H]2O[C@H](CO)[C@@H](O)[C@H](O)[C@H]2O)[C@H]2[C@@H]1[C@H](OC(=O)CCc1ccc(O)cc1)C[C@]2(C)O (some centres undefined)")
"inactive"
>>> group_label("OC[C@H]1O[C@@H](O[C@H]2[C@H](OCc3ccccc3)O[C@H](CO[C@@H]3OC[C@@H](O)[C@H](O)[C@H]3O)[C@@H](O)[C@@H]2O)[C@H](O)[C@@H](O)[C@@H]1O")
"inactive"
>>> group_label("CCCCCCOc1cc2c(cc1N(C)c1ncc(C(=O)O)cn1)C(C)(C)CCC2(C)C")
"inactive"
>>> group_label("O=C(N/N=C/c1ccc(O)c(O)c1)c1cc2ccccc2cc1O")
"inactive"
>>> group_label("CC(C)NCC(C(=O)N1CCN(c2ncnc3c2C(C)CC3O)CC1)c1ccc(Cl)cc1 (centres undefined)")
"inactive"
>>> group_label("CC(C)S(=O)(=O)NC[C@H](C)c1ccc(NC(=O)c2cc(F)cc(F)c2)cc1")
"inactive"
>>> group_label("NC(=O)c1cnc(NCCc2ccc(O)c(Cl)c2)nc1NCc1ccccc1")
"active"
>>> group_label("O=C(Nc1ccccc1)N1CCN(Cc2ccc3ccccc3n2)CC1")
"inactive"
